MEASURED_ON: Nitric oxide synthase, inducible (Mus musculus, UniProt P29477)
Sequence (P29477 whole entry): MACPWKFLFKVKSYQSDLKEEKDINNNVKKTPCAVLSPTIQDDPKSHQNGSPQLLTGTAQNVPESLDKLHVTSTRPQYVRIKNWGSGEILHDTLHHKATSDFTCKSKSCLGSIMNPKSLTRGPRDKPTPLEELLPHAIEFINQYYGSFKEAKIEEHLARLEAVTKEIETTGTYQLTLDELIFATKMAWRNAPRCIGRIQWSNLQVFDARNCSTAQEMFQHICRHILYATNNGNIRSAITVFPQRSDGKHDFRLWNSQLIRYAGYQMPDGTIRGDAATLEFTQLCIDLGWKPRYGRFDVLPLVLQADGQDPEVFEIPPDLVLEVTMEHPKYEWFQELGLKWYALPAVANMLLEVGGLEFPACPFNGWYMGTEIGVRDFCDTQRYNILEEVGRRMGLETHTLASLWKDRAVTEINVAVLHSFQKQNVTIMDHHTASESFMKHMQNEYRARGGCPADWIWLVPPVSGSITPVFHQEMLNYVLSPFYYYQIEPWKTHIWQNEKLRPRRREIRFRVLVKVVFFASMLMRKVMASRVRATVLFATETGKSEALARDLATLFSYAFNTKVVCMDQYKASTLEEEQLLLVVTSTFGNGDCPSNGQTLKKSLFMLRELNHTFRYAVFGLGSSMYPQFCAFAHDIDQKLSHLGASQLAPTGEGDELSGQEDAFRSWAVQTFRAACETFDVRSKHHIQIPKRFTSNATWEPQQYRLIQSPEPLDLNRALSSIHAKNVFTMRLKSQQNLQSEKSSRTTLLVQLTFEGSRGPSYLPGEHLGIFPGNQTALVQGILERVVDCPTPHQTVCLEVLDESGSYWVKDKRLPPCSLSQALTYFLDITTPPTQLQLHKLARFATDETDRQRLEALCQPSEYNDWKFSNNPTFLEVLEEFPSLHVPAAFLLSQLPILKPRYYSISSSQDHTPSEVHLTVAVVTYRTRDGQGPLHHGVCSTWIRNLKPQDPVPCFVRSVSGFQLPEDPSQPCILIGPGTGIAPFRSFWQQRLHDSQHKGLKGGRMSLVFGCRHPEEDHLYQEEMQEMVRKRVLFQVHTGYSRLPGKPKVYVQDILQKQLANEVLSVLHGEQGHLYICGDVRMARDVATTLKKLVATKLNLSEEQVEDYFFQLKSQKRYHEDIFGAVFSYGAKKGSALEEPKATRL
EXPERIMENT_SUMMARY: Inhibition of iNOS in mouse BV2 cells assessed as inhibition of LPS-induced NO production after 20 hrs by Griess reaction
ENDPOINT: IC50 (µM)

1. Cc1cc2c(cc1O)[C@@]1(C)CC[C@H](O)C(C)(C)[C@@H]1CC2; 5.9
2. C=C(C)[C@@]1(OC(=O)c2ccccc2)[C@H](OC(C)=O)[C@@H]2[C@H](OC(C)=O)[C@@]3(C)O[C@@]4([C@@H]3OC(=O)c3ccccc3)[C@@H](OC(C)=O)[C@@H](C)C[C@H]4[C@@]2(O)[C@H](C)[C@@H]1OC(C)=O; 13.4
3. C=C(C)[C@@]1(OC(C)=O)[C@H](OC(C)=O)[C@@H]2[C@H](OC(C)=O)[C@@]3(C)O[C@@]4([C@@H]3OC(=O)c3ccccc3)[C@@H](OC(C)=O)[C@@H](C)C[C@H]4[C@@]2(O)[C@H](C)[C@@H]1OC(=O)c1ccccc1; 7.5
4. CSC(=N)N.O=S(=O)(O)O; 1.8
5. C=C(C)[C@@]1(O)[C@@H]2OC3(c4ccccc4)O[C@H]1[C@@H](C)[C@@]1(O3)[C@H]2[C@H](OC(C)=O)[C@@](C)(OC(=O)c2ccccc2)[C@@H](OC(C)=O)[C@@]2(O)[C@H]1C[C@H](C)[C@@H]2O; 10.2
6. Cc1cc2c(cc1O)C=C1CC[C@H](O)C(C)(C)[C@@H]1CC2; 3.8
